# ASSAY REMARKS: Cytotoxic effect by MTT assay, 48 h
# EXPERIMENTAL CONTEXT: human
# Description: Cells were treated with Test Items at various concentrations (0.0001 μM-10 μM) for 48 h. The cells corresponding to Positive Control group were treated with Doxorubicin at a concentration ranging from 0.1 μM-100 μM. […] After 48 h of incubation, the effect of Test Items on cytotoxicity of cells was determined by MTT assay, the plates were taken out and 20 μl of 5 mg/m1 of MTT 3-(4,5-dimethythiazol-2-yl)-2,5-diphenyl tetrazolium bromide solution was added to all the wells. […]
MEASURED QUANTITY: cytotoxicity at 48 h, 0.1 µM (%)
Only the number, expressed in %, is required.

// sample COc1cccc2c1C(=O)c1c(O)c3c(c(O)c1C2=O)C[C@@](O)(C(=O)CO)C[C@@H]3O[C@H]1C[C@H](N)[C@H](O)[C@H](C)O1 , its cytotoxicity at 48 h, 0.1 µM was -3.4
